Data provenance is the supplement of paper PMC5998384.

- System: HeLa Kyoto
- assay comment: solubility in G1/S (NP-40 vs SDS abundance) (log2 ratio); higher = more soluble
- measurement parameters: cell cycle stage: G1/S
readout kind: solubility in G1/S (log2)
The answer should be written as a number, with no unit following it.

Item MFRLLSWSLGRGFLRAAGRRCRGCSARLLPGLAGGPGPEVQVPPSRVAPHGRGPGLLPLLAALAWFSRPAAAEEEEQQGADGAAAEDGADEAEAEIIQLLKRAKLSIMKDEPEEAELILHDALRLAYQTDNKKAITYTYDLMANLAFIRGQLENAEQLFKATMSYLLGGGMKQEDNAIIEISLKLASIYAAQNRQEFAVAGYEFCISTLEEKIEREKELAEDIMSVEEKANTHLLLGMCLDACARYLLFSKQPSQAQRMYEKALQISEEIQGERHPQTIVLMSDLATTLDAQGRFDEAYIYMQRASDLARQINHPELHMVLSNLAAVLMHRERYTQAKEIYQEALKQAKLKKDEISVQHIREELAELSKKSRPLTNSVKL [TTC19] has what recorded solubility in G1/S (log2)?
0.331

Item MGQIEWAMWANEQALASGLILITGGIVATAGRFTQWYFGAYSIVAGVFVCLLEYPRGKRKKGSTMERWGQKYMTAVVKLFGPFTRNYYVRAVLHLLLSVPAGFLLATILGTACLAIASGIYLLAAVRGEQWTPIEPKPRERPQIGGTIKQPPSNPPPRPPAEARKKPSEEEAAVAAGGPPGGPQVNPIPVTDEVV [CYBA] has what recorded solubility in G1/S (log2)?
0.005

Item MDCGSVGGQRTQRLPGRQRLLFLPVGLSGRPGGSETSARRCLSALSDGLGALRPRAPAARGGVSRASPLLLLLLVPSPRLAAAAPRRQLGDWERSRLGYAAPPAGRSSAWRCSPGVAAAAGALPQYHGPAPALVSCRRELSLSAGSLQLERKRRDFTSSGSRKLYFDTHALVCLLEDNGFATQQAEIIVSALVKILEANMDIVYKDMVTKMQQEITFQQVMSQIANVKKDMIILEKSEFSALRAENEKIKLELHQLKQQVMDEVIKVRTDTKLDFNLEKSRVKELYSLNEKKLLELRTEIVALHAQQDRALTQTDRKIETEVAGLKTMLESHKLDNIKYLAGSIFTCLTVALGFYRLWI [MCUR1] has what recorded solubility in G1/S (log2)?
0.186

---

Entries and their thermal stability score
- System: HeLa Kyoto
- assay comment: thermal stability score vs G1/S (z-score of summed log2 fold changes over temperatures); higher = more thermally stable than in G1/S
- measurement parameters: cell cycle stage: mitosis
The answer should be written as a number, with no unit following it.

Here are 2 sequences together with their reported answers.
1. MEINTKLLISVTCISFFTFQLLFYFVSYWFSAKVSPGFNSLSFKKKIEWNSRVVSTCHSLVVGIFGLYIFLFDEATKADPLWGGPSLANVNIAIASGYLISDLSIIILYWKVIGDKFFIMHHCASLYAYYLVLKNGVLAYIGNFRLLAELSSPFVNQRWFFEALKYPKFSKAIVINGILMTVVFFIVRIASMLPHYGFMYSVYGTEPYIRLGVLIQLSWVISCVVLDVMNVMWMIKISKGCIKVISHIRQEKAKNSLQNGKLD [TMEM56] = -0.867
2. MTDGDYDYLIKLLALGDSGVGKTTFLYRYTDNKFNPKFITTVGIDFREKRVVYNAQGPNGSSGKAFKVHLQLWDTAGQERFRSLTTAFFRDAMGFLLMFDLTSQQSFLNVRNWMSQLQANAYCENPDIVLIGNKADLPDQREVNERQARELADKYGIPYFETSAATGQNVEKAVETLLDLIMKRMEQCVEKTQIPDTVNGGNSGNLDGEKPPEKKCIC [RAB27B] = -2.39

API: the following record is the query input.
Item MDAPGALAQTAAPGPGRKELKIVIVGDGGCGKTSLLMVYSQGSFPEHYAPSVFEKYTASVTVGSKEVTLNLYDTAGQEDYDRLRPLSYQNTHLVLICYDVMNPTSYDNVLIKWFPEVTHFCRGIPMVLIGCKTDLRKDKEQLRKLRAAQLEPITYMQGLSACEQIRAALYLECSAKFRENVEDVFREAAKVALSALKKAQRQKKRRLCLLL [RHOF] has what recorded thermal stability score?
0.369

---

- Tested on: HeLa Kyoto
- assay comment: melting temperature (median over replicates), in situ; higher = more thermally stable
- measurement parameters: cell cycle stage: mitosis
readout kind: melting temperature (°C)
Report as a plain number; the unit °C is understood.

1. MAVELGVLLVRPRPGTGLGRVMRTLLLVLWLATRGSALYFHIGETEKKCFIEEIPDETMVIGNYRTQLYDKQREEYQPATPGLGMFVEVKDPEDKVILARQYGSEGRFTFTSHTPGEHQICLHSNSTKFSLFAGGMLRVHLDIQVGEHANDYAEIAAKDKLSELQLRVRQLVEQVEQIQKEQNYQRWREERFRQTSESTNQRVLWWSILQTLILVAIGVWQMRHLKSFFEAKKLV [TMED9] = 56.7
2. MAAPEAPPLDRVFRTTWLSTECDSHPLPPSYRKFLFETQAADLAGGTTVAAGNLLNESEKDCGQDRRAPGVQPCRLVTMTSVVKTVYSLQPPSALSGGQPADTQTRATSKSLLPVRSKEVDVSKQLHSGGPENDVTKITKLRRENGQMKATDTATRRNVRKGYKPLSKQKSEEELKDKNQLLEAVNKQLHQKLTETQGELKDLTQKVELLEKFRDNCLAILESKGLDPALGSETLASRQESTTDHMDSMLLLETLQEELKLFNETAKKQMEELQALKVKLEMKEERVRFLEQQTLCNNQVNDLTTALKEMEQLLEM [KNSTRN] = 50.5

Item MPSKKKKYNARFPPARIKKIMQTDEEIGKVAAAVPVIISRALELFLESLLKKACQVTQSRNAKTMTTSHLKQCIELEQQFDFLKDLVASVPDMQGDGEDNHMDGDKGARRGRKPGSGGRKNGGMGTKSKDKKLSGTDSEQEDESEDTDTDGEEETSQPPPQASHPSAHFQSPPTPFLPFASTLPLPPAPPGPSAPDEEDEEDYDS [DRAP1] has what recorded melting temperature?
55.7

---

Entries and their melting temperature
- Tested on: HeLa Kyoto
- assay comment: melting temperature (median over replicates), in situ; higher = more thermally stable
- measurement parameters: cell cycle stage: G1/S
Report as a plain number; the unit °C is understood.

Here are 5 sequences together with their reported answers.
1) MGFLRRLIYRRRPMIYVESSEESSDEQPDEVESPTQSQDSTPAEEREDEGASAAQGQEPEADSQELVQPKTGCELGDGPDTKRVCLRNEEQMKLPAEGPEPEADSQEQVHPKTGCERGDGPDVQELGLPNPEEVKTPEEDEGQSQP [PAGE1] = 53.3
2) MLGFITRPPHRFLSLLCPGLRIPQLSVLCAQPRPRAMAISSSSCELPLVAVCQVTSTPDKQQNFKTCAELVREAARLGACLAFLPEAFDFIARDPAETLHLSEPLGGKLLEEYTQLARECGLWLSLGGFHERGQDWEQTQKIYNCHVLLNSKGAVVATYRKTHLCDVEIPGQGPMCESNSTMPGPSLESPVSTPAGKIGLAVCYDMRFPELSLALAQAGAEILTYPSAFGSITGPAHWEVLLRARAIETQCYVVAAAQCGRHHEKRASYGHSMVVDPWGTVVARCSEGPGLCLARIDLNYLRQLRRHLPVFQHRRPDLYGNLGHPLS [NIT1] = 54.7
3) MDPAARVVRALWPGGCALAWRLGGRPQPLLPTQSRAGFAGAAGGPSPVAAARKGSPRLLGAAALALGGALGLYHTARWHLRAQDLHAERSAAQLSLSSRLQLTLYQYKTCPFCSKVRAFLDFHALPYQVVEVNPVRRAEIKFSSYRKVPILVAQEGESSQQLNDSSVIISALKTYLVSGQPLEEIITYYPAMKAVNEQGKEVTEFGNKYWLMLNEKEAQQVYGGKEARTEEMKWRQWADDWLVHLISPNVYRTPTEALASFDYIVREGKFGAVEGAVAKYMGAAAMYLISKRLKSRHRLQDNVREDLYEAADKWVAAVGKDRPFMGGQKPNLADLAVYGVLRVMEGLDAFDDLMQHTHIQPWYLRVERAITEASPAH [PTGES2] = 54.6
4) MGQIEWAMWANEQALASGLILITGGIVATAGRFTQWYFGAYSIVAGVFVCLLEYPRGKRKKGSTMERWGQKYMTAVVKLFGPFTRNYYVRAVLHLLLSVPAGFLLATILGTACLAIASGIYLLAAVRGEQWTPIEPKPRERPQIGGTIKQPPSNPPPRPPAEARKKPSEEEAAVAAGGPPGGPQVNPIPVTDEVV [CYBA] = 54.8
5) MARLWGALSLWPLWAAVPWGGAAAVGVRACSSTAAPDGVEGPALRRSYWRHLRRLVLGPPEPPFSHVCQVGDPVLRGVAAPVERAQLGGPELQRLTQRLVQVMRRRRCVGLSAPQLGVPRQVLALELPEALCRECPPRQRALRQMEPFPLRVFVNPSLRVLDSRLVTFPEGCESVAGFLACVPRFQAVQISGLDPNGEQVVWQASGWAARIIQHEMDHLQGCLFIDKMDSRTFTNVYWMKVND [PDF] = 54.8

Item MPKKKTGARKKAENRREREKQLRASRSTIDLAKHPCNASMECDKCQRRQKNRAFCYFCNSVQKLPICAQCGKTKCMMKSSDCVIKHAGVYSTGLAMVGAICDFCEAWVCHGRKCLSTHACACPLTDAECVECERGVWDHGGRIFSCSFCHNFLCEDDQFEHQASCQVLEAETFKCVSCNRLGQHSCLRCKACFCDDHTRSKVFKQEKGKQPPCPKCGHETQETKDLSMSTRSLKFGRQTGGEEGDGASGYDAYWKNLSSDKYGDTSYHDEEEDEYEAEDDEEEEDEGRKDSDTESSDLFTNLNLGRTYASGYAHYEEQEN [ZNF330] has what recorded melting temperature?
50.4

Item MVWKRLGALVMFPLQMIYLVVKAAVGLVLPAKLRDLSRENVLITGGGRGIGRQLAREFAERGARKIVLWGRTEKCLKETTEEIRQMGTECHYFICDVGNREEVYQTAKAVREKVGDITILVNNAAVVHGKSLMDSDDDALLKSQHINTLGQFWTTKAFLPRMLELQNGHIVCLNSVLALSAIPGAIDYCTSKASAFAFMESLTLGLLDCPGVSATTVLPFHTSTEMFQGMRVRFPNLFPPLKPETVARRTVEAVQLNQALLLLPWTMHALVILKSILPQAALEEIHKFSGTYTCMNTFKGRT [DHRS3] has what recorded melting temperature?
54

Item MAASAGAGAVIAAPDSRRWLWSVLAAALGLLTAGVSALEVYTPKEIFVANGTQGKLTCKFKSTSTTGGLTSVSWSFQPEGADTTVSFFHYSQGQVYLGNYPPFKDRISWAGDLDKKDASINIENMQFIHNGTYICDVKNPPDIVVQPGHIRLYVVEKENLPVFPVWVVVGIVTAVVLGLTLLISMILAVLYRRKNSKRDYTGCSTSESLSPVKQAPRKSPSDTEGLVKSLPSGSHQGPVIYAQLDHSGGHHSDKINKSESVVYADIRKN [MPZL1] has what recorded melting temperature?
57.8

Item MPGPAAGSRARVYAEVNSLRSREYWDYEAHVPSWGNQDDYQLVRKLGRGKYSEVFEAINITNNERVVVKILKPVKKKKIKREVKILENLRGGTNIIKLIDTVKDPVSKTPALVFEYINNTDFKQLYQILTDFDIRFYMYELLKALDYCHSKGIMHRDVKPHNVMIDHQQKKLRLIDWGLAEFYHPAQEYNVRVASRYFKGPELLVDYQMYDYSLDMWSLGCMLASMIFRREPFFHGQDNYDQLVRIAKVLGTEELYGYLKKYHIDLDPHFNDILGQHSRKRWENFIHSENRHLVSPEALDLLDKLLRYDHQQRLTAKEAMEHPYFYPVVKEQSQPCADNAVLSSGLTAAR [CSNK2A2] has what recorded melting temperature?
50.7

Item MTTAARPTFEPARGGRGKGEGDLSQLSKQYSSRDLPSHTKIKYRQTTQDAPEEVRNRDFRRELEERERAAAREKNRDRPTREHTTSSSVSKKPRLDQIPAANLDADDPLTDEEDEDFEEESDDDDTAALLAELEKIKKERAEEQARKEQEQKAEEERIRMENILSGNPLLNLTGPSQPQANFKVKRRWDDDVVFKNCAKGVDDQKKDKRFVNDTLRSEFHKKFMEKYIK [CWC15] has what recorded melting temperature?
55.4

Item MQTPVNIPVPVLRLPRGPDGFSRGFAPDGRRAPLRPEVPEIQECPIAQESLESQEQRARAALRERYLRSLLAMVGHQVSFTLHEGVRVAAHFGATDLDVANFYVSQLQTPIGVQAEALLRCSDIISYTFKP [GEMIN7] has what recorded melting temperature?
53
